- Assayed System: ABL T315I (Homo sapiens, UniProt P00519, T315I)
- Construct: purchased Invitrogen
- Method: In vitro kinase assay (Z′-LYTE)
- Assay type: biochemical
- Measurement Context: read-out: % of inhibition of the kinase compared to the control
# key: entry, value: inhibition at 10 µM

| Item Smiles | inhibition at 10 µM |
| --- | --- |
| COC(=O)c1cc2cc(NCc3ccc(C)c(NC(=O)c4ccc(CN5CCN(C)CC5)c(C(F)(F)F)c4)c3)cnc2[nH]1 | ≥ 50% |
| COC(=O)c1cc2cc(NCc3cc(NC(=O)c4cccc(C(C)C)c4)ccc3C)cnc2[nH]1 | ≥ 50% |
| COC(=O)c1cc2cc(NC(=O)c3cc(NC(=S)c4cc(-n5cnc(C)c5)cc(C(F)(F)F)c4)ccc3C)cnc2[nH]1 | < 50% |
| COC(=O)c1cc2cc(NCc3cc(NC(=O)c4ccc5[nH]nnc5c4)ccc3C)cnc2[nH]1 | < 50% |
| COC(=O)c1cc2cc(NCc3cc(NC(=O)c4cccc(C)c4)ccc3C)cnc2[nH]1 | < 50% |
| COC(=O)c1cc2cc(NCc3cc(NS(=O)(=O)c4ccc(C)cc4)ccc3C)cnc2[nH]1 | < 50% |
| COC(=O)c1cc2cc(NCc3cc(NC(=O)c4cccc(OC(F)(F)F)c4)ccc3C)cnc2[nH]1 | ≥ 50% |
| COC(=O)c1cc2cc(NCc3cc(NC(=O)c4cccc(C(F)(F)F)c4)ccc3C)cnc2[nH]1 | ≥ 50% |
| COC(=O)c1cc2cc(NCc3cc(NC(=O)c4ccc(CN5CCOCC5)c(C(F)(F)F)c4)ccc3C)cnc2[nH]1 | ≥ 50% |
| COC(=O)c1cc2cc(NCc3cc(NC(=O)Cc4cccc(C(F)(F)F)c4)ccc3C)cnc2[nH]1 | < 50% |

Qu. Using the record for COC(=O)c1cc2cc(NCc3cc(NC(=O)c4ccc(CN5CCC(O)CC5)c(C(F)(F)F)c4)ccc3C)cnc2[nH]1 , report its inhibition at 10 µM.
Ans. < 50%

Qu. Looking for the measured inhibition at 10 µM of COC(=O)c1cc2cc(NCc3cc(NC(=O)Nc4cccc(C(F)(F)F)c4)ccc3C)cnc2[nH]1 , can you help?
Ans. < 50%

Qu. Recorded inhibition at 10 µM for COC(=O)c1cc2cc(NCc3cc(NC(=O)c4cc(Nc5cc[nH]n5)cc(C(F)(F)F)c4)ccc3C)cnc2[nH]1 , please?
Ans. ≥ 50%

Qu. Please look up its inhibition at 10 µM: COC(=O)c1cc2cc(NCc3cc(NC(=O)c4ccc(CN5CCN(C)CC5)c(C(F)(F)F)c4)ccc3C)cnc2[nH]1
Ans. ≥ 50%

Qu. Could you share which inhibition at 10 µM value was measured for COC(=O)c1cc2cc(NCc3cc(NC(=O)c4ccc5c(c4)OCO5)ccc3C)cnc2[nH]1 ?
Ans. < 50%

Qu. Using the record for COC(=O)c1cc2cc(NCc3cc(NC(=O)c4ccc(CN5CCN(C)CC5)c(C(F)(F)F)c4)ccc3Cl)cnc2[nH]1 , report its inhibition at 10 µM.
Ans. ≥ 50%

---

// reported EC50 for each item listed
- Tested on: HUVEC
- Method: In vitro cell proliferation assay (MTT)
- Format: cell-based
- Measurement Context: Homo sapiens, 72 h

| Compound | Value Kind | Test Value |
| --- | --- | --- |
| COC(=O)c1cc2cc(NCc3cc(NC(=O)c4cccc(C)c4)ccc3C)cnc2[nH]1 | EC50 | ≤ 100 nM |
| CNC(=O)c1cc(Oc2ccc(NC(=O)Nc3ccc(Cl)c(C(F)(F)F)c3)cc2)ccn1 [Sorafenib, reference compound] | EC50 | 100 to 1000 nM |
| COC(=O)c1cc2cc(NCc3cc(NC(=O)c4cccc(C(F)(F)F)c4)ccc3C)cnc2[nH]1 | EC50 | ≤ 100 nM |
| COC(=O)c1cc2cc(NCc3cc(NC(=O)c4cc(Nc5cc[nH]n5)cc(C(F)(F)F)c4)ccc3C)cnc2[nH]1 | EC50 | ≤ 100 nM |
| COC(=O)c1cc2cc(NCc3cc(NC(=O)c4ccccc4OC)ccc3C)cnc2[nH]1 | EC50 | 100 to 1000 nM |

Qu. What value of measured EC50 is listed for COC(=O)c1cc2cc(NCc3cc(NC(=O)c4cccc(C(C)C)c4)ccc3C)cnc2[nH]1 ?
Ans. ≤ 100 nM

Qu. Consider the compound COC(=O)c1cc2cc(NCc3cc(NC(=O)c4ccc5c(c4)OCO5)ccc3C)cnc2[nH]1 and give its measured EC50.
Ans. 100 to 1000 nM
